# Protocol notes: Drug level in Sprague-Dawley rat cerebrospinal fluid at 1 mg/kg, ip after 0.5 hrs
# Format: ADME, organism-based
# Condition details: read-out: Drug uptake

| Smiles data | concentration at 0.5 h / µM |
| --- | --- |
| N[C@@]1(C(=O)O)C[C@@H](Sc2nc[nH]n2)[C@H]2[C@H](C(=O)O)[C@H]21 | 0.0488 |

###

# Protocol notes: Volume of distribution at steady state in Sprague-Dawley rat at 1 mg/kg, iv
# Type: ADME, organism-based
# Condition details: in vivo, read-out: Vdss
Measurement label: Vd

| Smiles data | Result |
| --- | --- |
| N[C@@]1(C(=O)O)C[C@@H](Sc2nc[nH]n2)[C@H]2[C@H](C(=O)O)[C@H]21 | 1.01 L/kg |

###

# Protocol notes: Plasma concentration in Sprague-Dawley rat at 1 mg/kg, ip after 1 hr
# Type: ADME, organism-based
Measurement label: concentration at 1 h (µM)

| Smiles data | Units symbol | Measured number |
| --- | --- | --- |
| N[C@@]1(C(=O)O)C[C@@H](Sc2nc[nH]n2)[C@H]2[C@H](C(=O)O)[C@H]21 | µM | 3.01 |

###

# Test target: Metabotropic glutamate receptor 2 (Homo sapiens, UniProt Q14416, E273D/L300Q)
# Sequence (Q14416 19-872 E273D/L300Q limits assumed): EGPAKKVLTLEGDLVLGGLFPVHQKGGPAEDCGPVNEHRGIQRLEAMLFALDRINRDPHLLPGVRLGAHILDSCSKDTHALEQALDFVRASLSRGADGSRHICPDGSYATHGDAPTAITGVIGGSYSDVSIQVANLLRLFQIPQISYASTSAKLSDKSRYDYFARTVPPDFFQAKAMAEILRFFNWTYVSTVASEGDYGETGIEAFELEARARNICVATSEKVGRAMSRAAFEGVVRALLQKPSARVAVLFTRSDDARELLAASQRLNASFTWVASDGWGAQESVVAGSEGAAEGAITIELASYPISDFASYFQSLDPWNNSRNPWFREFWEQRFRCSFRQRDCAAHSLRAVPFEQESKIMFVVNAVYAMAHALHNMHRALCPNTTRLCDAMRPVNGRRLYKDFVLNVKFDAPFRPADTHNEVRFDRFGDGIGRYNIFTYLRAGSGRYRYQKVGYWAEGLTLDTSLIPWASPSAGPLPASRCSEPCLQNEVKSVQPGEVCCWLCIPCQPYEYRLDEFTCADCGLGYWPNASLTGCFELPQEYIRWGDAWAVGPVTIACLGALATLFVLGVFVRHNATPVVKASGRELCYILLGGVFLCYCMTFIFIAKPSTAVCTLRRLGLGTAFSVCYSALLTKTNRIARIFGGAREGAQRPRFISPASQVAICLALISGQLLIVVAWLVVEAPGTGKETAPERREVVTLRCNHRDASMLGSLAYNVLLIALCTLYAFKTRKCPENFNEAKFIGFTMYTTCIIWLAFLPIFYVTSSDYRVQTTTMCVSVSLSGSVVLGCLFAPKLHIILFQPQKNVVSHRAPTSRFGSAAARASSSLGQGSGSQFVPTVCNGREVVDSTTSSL
# Protocol notes: Agonist activity at human recombinant mGlu2 receptor E273D and L300Q mutant expressed in AV12 cells assessed as stimulation of Ca2+ mobilization after 1 hr by FLIPR assay

| Smiles data | Test target | EC50, µM |
| --- | --- | --- |
| N[C@@]1(C(=O)O)C[C@@H](Sc2nc[nH]n2)[C@H]2[C@H](C(=O)O)[C@H]21 | Metabotropic glutamate receptor 2 (Homo sapiens, UniProt Q14416, E273D/L300Q) | 0.0482 |

###

# Protocol notes: Tmax in Sprague-Dawley rat at 5 mg/kg, po
# Assay type: ADME, organism-based
# Condition details: in vivo
Measurement label: Tmax (min)

| Smiles data | Measured number |
| --- | --- |
| N[C@@]1(C(=O)O)C[C@@H](Sc2nc[nH]n2)[C@H]2[C@H](C(=O)O)[C@H]21 | 30 |

###

# Protocol notes: Tmax in Sprague-Dawley rat at 1 mg/kg, ip
# Format: ADME, organism-based
# Condition details: in vivo

| Smiles data | Tmax [min] |
| --- | --- |
| N[C@@]1(C(=O)O)C[C@@H](Sc2nc[nH]n2)[C@H]2[C@H](C(=O)O)[C@H]21 | 24 |

###

# Test target: Metabotropic glutamate receptor 2 (Homo sapiens)
# Protocol notes: Displacement of [3H]-459477 from human recombinant mGlu2 receptor expressed in AV12 cells after 90 mins by liquid scintillation counting

| Smiles data | Test target | Ki / nM |
| --- | --- | --- |
| Nc1nnc(S[C@@H]2C[C@@](N)(C(=O)O)[C@@H]3[C@@H](C(=O)O)[C@@H]32)[nH]1 | Metabotropic glutamate receptor 2 (Homo sapiens) | 67 |
| CC(C)c1nc(S[C@H]2C[C@@](N)(C(=O)O)[C@@H]3[C@@H](C(=O)O)[C@@H]32)n[nH]1 | Metabotropic glutamate receptor 2 (Homo sapiens) | 339 |
| Cc1nnc(S[C@H]2C[C@@](N)(C(=O)O)[C@@H]3[C@@H](C(=O)O)[C@@H]32)[nH]1 | Metabotropic glutamate receptor 2 (Homo sapiens) | 171 |
| N[C@@]1(C(=O)O)C[C@@H](Sc2nc[nH]n2)[C@H]2[C@H](C(=O)O)[C@H]21 | Metabotropic glutamate receptor 2 (Homo sapiens) | 144 |
| N[C@@]1(C(=O)O)C[C@@H](Sc2nnc(C(F)F)[nH]2)[C@H]2[C@H](C(=O)O)[C@H]21 | Metabotropic glutamate receptor 2 (Homo sapiens) | 95.8 |
| Cc1nnc(S[C@@H]2C[C@@](N)(C(=O)O)[C@@H]3[C@@H](C(=O)O)[C@@H]32)[nH]1 | Metabotropic glutamate receptor 2 (Homo sapiens) | 121 |
| N[C@@]1(C(=O)O)C[C@H](Sc2ccccc2)[C@H]2[C@H](C(=O)O)[C@H]21 | Metabotropic glutamate receptor 2 (Homo sapiens) | 1230 |
| N[C@@]1(C(=O)O)C[C@H](Sc2c[nH]nn2)[C@H]2[C@H](C(=O)O)[C@H]21 | Metabotropic glutamate receptor 2 (Homo sapiens) | 111 |
